Tested on: BDBV mucin-domain-deleted glycoprotein pseudotyped VSV
Assay: microbe, parasite or virus in culture
Assay type: cell-based, Bundibugyo ebolavirus
Details: read-out: EC50 BDBV
measured-parameter: EC50 (µM)
Kindly answer with a numeric value in µM, unit omitted.

I'd like to know its EC50. The compound in question is Cc1ccccc1-c1nnn(CC(=O)NC(C)C23CC4CC(CC(C4)C2)C3)n1 (stereo not shown)
3.9

* * *

Test system: full-length SUDV GP pseudotyped VSV
Assay: microbe, parasite or virus in culture
Assay type: cell-based, Sudan ebolavirus
Settings: Vesicular stomatitis virus, read-out: EC50 Pseudotype Assays SUDV
measured-parameter: pEC50
# pEC50 is unitless: minus log10 of the molar concentration; print number only

I'd like to know its pEC50. The compound in question is `CN(C)CCCNc1nc(C23CC4CC(CC(C4)C2)C3)cs1`
5.84

I'd like to know its pEC50. The compound in question is CCC12CC3CC(C(=O)NC4CCNCC4)(C1)CC(c1ccccc1)(C3)C2 (stereo not drawn)
6.40

I'd like to know its pEC50. The compound in question is OCCN1CCN(CC(O)COc2ccc(C34CC5CC(CC(C5)C3)C4)cc2)CC1 (stereo not drawn)
5.61

I'd like to know its pEC50. The compound in question is CC12CC3CC(C(=O)NC4CCNCC4)(C1)CC(c1ccccc1)(C3)C2 (stereo not drawn)
6.39

I'd like to know its pEC50. The compound in question is CC1CCN(CC(O)COc2ccc(C34CC5CC(CC(C5)C3)C4)cc2)CC1 (stereo not drawn)
6.39

I'd like to know its pEC50. The compound in question is CC12CC3CC(C(=O)N[C@H]4CC[C@H](N)CC4)(C1)CC(c1ccccc1)(C3)C2.Cl (stereo partly drawn)
6.68
